B1: library; a variant is named by its letters at N, in order (parent)
chain: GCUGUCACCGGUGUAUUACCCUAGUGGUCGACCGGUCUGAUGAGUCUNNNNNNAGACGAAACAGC

Variants of: B1
Assay: normalized RNA/DNA level without ligand (relative to sTRSVctl = 100) (log10 (% of sTRSVctl)); ligand: hypoxanthine (xanthine aptamer); higher = less ribozyme self-cleavage, higher mRNA level
Settings: HEK293T, reporter: mCherry (pCS4076), ligand present: no
normalized RNA/DNA level without ligand (log10) for assorted variants
# output: bare number, no unit

Record excerpt, results attached:
mutation.spec	numeric.result
UUUAAA	1.76
AGACCU	1.88
GGCCUA	1.98
UGGCGC	2

Now look at this entry.
According to the records, this variant CUCCGU displays normalized RNA/DNA level without ligand (log10) of 1.88

Provenance of the data: the supplement of paper PMC6757056
